# reported inhibition at 50 µg/mL; entries follow
target: Xanthine dehydrogenase/oxidase (Bos taurus); experiment: Inhibition of cow milk xanthine oxidase at 50 ug/mL; conditions: cattle
Sequence (P80457 whole entry): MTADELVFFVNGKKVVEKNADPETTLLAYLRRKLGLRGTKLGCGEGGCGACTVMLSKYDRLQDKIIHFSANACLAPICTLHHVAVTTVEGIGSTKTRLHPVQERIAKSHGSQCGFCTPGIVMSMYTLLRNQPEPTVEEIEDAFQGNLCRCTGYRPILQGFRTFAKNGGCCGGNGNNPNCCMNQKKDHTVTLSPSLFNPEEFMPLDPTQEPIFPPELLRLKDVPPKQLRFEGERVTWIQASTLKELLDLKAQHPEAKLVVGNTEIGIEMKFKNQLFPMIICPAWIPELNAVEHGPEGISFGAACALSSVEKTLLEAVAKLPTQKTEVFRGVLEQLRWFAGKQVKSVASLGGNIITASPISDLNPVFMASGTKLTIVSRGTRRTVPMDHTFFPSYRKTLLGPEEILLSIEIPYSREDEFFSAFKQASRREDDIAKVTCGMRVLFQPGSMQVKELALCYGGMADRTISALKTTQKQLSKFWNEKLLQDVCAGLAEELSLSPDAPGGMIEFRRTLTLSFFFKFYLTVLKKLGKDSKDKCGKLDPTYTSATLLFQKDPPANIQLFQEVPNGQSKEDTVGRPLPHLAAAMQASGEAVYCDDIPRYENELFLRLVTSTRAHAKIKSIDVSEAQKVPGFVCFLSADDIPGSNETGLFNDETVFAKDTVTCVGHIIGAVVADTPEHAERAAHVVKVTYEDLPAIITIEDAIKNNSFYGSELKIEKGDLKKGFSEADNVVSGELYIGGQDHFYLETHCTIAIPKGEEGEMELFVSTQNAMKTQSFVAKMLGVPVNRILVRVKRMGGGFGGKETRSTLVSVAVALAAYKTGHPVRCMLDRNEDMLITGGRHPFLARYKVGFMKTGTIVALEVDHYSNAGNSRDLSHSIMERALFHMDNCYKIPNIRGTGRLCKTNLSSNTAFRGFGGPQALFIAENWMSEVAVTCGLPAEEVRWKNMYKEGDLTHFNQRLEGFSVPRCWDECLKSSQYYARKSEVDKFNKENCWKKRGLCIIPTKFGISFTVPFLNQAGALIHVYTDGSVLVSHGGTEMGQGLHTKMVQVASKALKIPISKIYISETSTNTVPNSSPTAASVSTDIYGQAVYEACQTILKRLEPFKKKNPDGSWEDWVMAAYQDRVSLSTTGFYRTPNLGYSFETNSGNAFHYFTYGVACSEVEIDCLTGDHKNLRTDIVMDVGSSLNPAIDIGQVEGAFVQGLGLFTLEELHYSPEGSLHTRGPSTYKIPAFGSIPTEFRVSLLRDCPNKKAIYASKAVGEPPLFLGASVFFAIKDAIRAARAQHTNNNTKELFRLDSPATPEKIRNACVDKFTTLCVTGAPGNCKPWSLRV
Answer format: numeric, % implied, no suffix.

Take a look at these entries with their results.
[[record]]
molecule = "O=c1cc(-c2ccc(O)c(O)c2)oc2cc(O[C@@H]3O[C@H](CO)[C@@H](O)[C@H](O)[C@H]3O)c([C@@H]3O[C@H](CO)[C@@H](O)[C@H](O)[C@H]3O)c(O)c12"
measured = 0

[[record]]
molecule = "COc1ccc(-c2cc(=O)c3c(O)cc(O[C@@H]4O[C@H](CO[C@@H]5OC[C@@H](O)[C@@H](O)[C@@H]5O)[C@@H](O)[C@H](O)[C@H]4O)cc3o2)cc1O"
measured = 30.5

[[record]]
molecule = "COc1c(-c2ccc(O[C@@H]3O[C@H](CO)[C@@H](O)[C@H](O)[C@H]3O)c(O)c2)oc2cc(O)cc(O)c2c1=O"
measured = 69.1


Prompt line: # inhibition at 50 µg/mL lookup, item O=c1c(O[C@@H]2O[C@@H](CO)[C@H](O)[C@H]2O)c(-c2ccc(O)c(O)c2)oc2cc(O)cc(O)c12 [AVICULARIN]
Response line: 30.8
